Target: human recombinant prostanoid TP receptor (Homo sapiens)
Construct: expressed in transfected cells
Sequence (P21731 whole entry): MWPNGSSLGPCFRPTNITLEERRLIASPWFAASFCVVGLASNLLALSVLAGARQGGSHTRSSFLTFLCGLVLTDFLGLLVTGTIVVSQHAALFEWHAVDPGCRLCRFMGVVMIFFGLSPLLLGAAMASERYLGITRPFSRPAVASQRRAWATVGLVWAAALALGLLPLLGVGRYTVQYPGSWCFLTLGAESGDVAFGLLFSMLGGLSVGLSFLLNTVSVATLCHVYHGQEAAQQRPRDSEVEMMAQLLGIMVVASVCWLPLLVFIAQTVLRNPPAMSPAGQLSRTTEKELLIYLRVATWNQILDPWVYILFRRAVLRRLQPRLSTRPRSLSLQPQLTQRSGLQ
Test: FLIPR Ca2+ signaling, PG antagonist activity, TP
Format: cell-based
Settings: antagonism of standard agonist U-46619, HEK-293 EBNA stable cells
# key: entry, value: log10 of Kb
observation type: log10 of Kb (log10 of the value in nM)

[
  {
    "molecule": "CCCc1c(C(=O)O)cnn1Cc1cc(Cl)ccc1OCC(CC)CC [Example 7]",
    "observation type": "log10 of Kb",
    "value measured": 2.18
  },
  {
    "molecule": "Cc1c(C(=O)O)cnn1Cc1cc(Cl)ccc1OCC(C)C [Example 11]",
    "observation type": "log10 of Kb",
    "value measured": 1.90
  },
  {
    "molecule": "CCC(CC)COc1ccc(OC(F)(F)F)cc1Cn1ncc(C(=O)O)c1C [Example 15]",
    "observation type": "log10 of Kb",
    "value measured": 0.90
  },
  {
    "molecule": "CCC(CC)COc1ccc(Cl)cc1Cn1ncc(C(=O)O)c1C [Example 10]",
    "observation type": "log10 of Kb",
    "value measured": 0.78
  },
  {
    "molecule": "CCCc1nn(Cc2cc(Cl)ccc2OCC(CC)CC)cc1C(=O)O [Example 6]",
    "observation type": "log10 of Kb",
    "value measured": 2.70
  },
  {
    "molecule": "CCC(CC)COc1ccc(C(F)(F)F)cc1Cn1ncc(C(=O)O)c1C [Example 8]",
    "observation type": "log10 of Kb",
    "value measured": 1.65
  },
  {
    "molecule": "CCC(CC)COc1ccc(Cl)cc1Cn1nc(C)c(C(=O)O)c1C [Example 5]",
    "observation type": "log10 of Kb",
    "value measured": 1.26
  },
  {
    "molecule": "CCC(CC)COc1ccc(Cl)cc1Cn1cc(C(=O)O)cn1 [Example 4]",
    "observation type": "log10 of Kb",
    "value measured": 2.00
  }
]
